// pIC50 lookup, one value per entry
- target: Recombinant human cathepsin A (Homo sapiens)
- Construct: Recombinant human cathepsin A (residues 29-480, with a C-terminal 10-His tag); 10-His (C)
- testName: Cathepsin A inhibitory activity
- conditionLabel: activated recombinant human cathepsin A 833 ng/ml, Bodipy FL-labeled bradykinin 2 μM, pH 5.5, 15 min room temperature
Please treat pIC50 as minus the base-10 logarithm of the molar concentration.

Take a look at these entries with their results.
molecule: O=C(O)C[C@H](NC(=O)c1cc2[nH]c3ccccc3n2n1)c1ccccc1Cl
pIC50: 6.41

molecule: O=C(O)CC(NC(=O)c1cc2[nH]c3ccccc3n2n1)c1cccc2c1OCO2 (stereo not shown)
pIC50: 5.95

molecule: O=C(O)C[C@H](NC(=O)c1cc2[nH]c3ccccc3n2n1)c1ccccc1F
pIC50: 5.93

molecule: Cc1ccc([C@H](CC(=O)O)NC(=O)c2cc(NC(=O)c3ccccc3)n(-c3ccccc3)n2)c(C)c1
pIC50: 6.97

Report pIC50 for O=C(Nc1cc(C(=O)NCC(C(=O)O)c2ccccc2)nn1-c1ccccc1)c1ccccc1 (stereo not shown) please. 5.31

Report pIC50 for "Cc1ccccc1[C@H](CC(=O)O)NC(=O)c1cc(N2CCCC2=O)n(-c2ccccc2)n1" please. 7.59

Report pIC50 for "Cc1ccccc1[C@H](CC(=O)O)NC(=O)c1cc(N)n(-c2ccccc2F)n1" please. 7.86

Report pIC50 for O=C(O)CC(NC(=O)c1cc2[nH]c3ccccc3n2n1)c1cc(F)ccc1F (stereo not shown) please. 5.57

Report pIC50 for "CC(C)(C)C(=O)Nc1cc(C(=O)N[C@@H](CC(=O)O)c2ccccc2Cl)nn1-c1ccccc1" please. 7.50

Report pIC50 for "N#Cc1cccc([C@H](CC(=O)O)NC(=O)c2cc3[nH]c4ccccc4n3n2)c1" please. 5.45

Report pIC50 for "Cc1ccccc1[C@H](CC(=O)O)NC(=O)c1cc(N)n(-c2ccccc2)n1" please. 7.60

Report pIC50 for O=C(O)CC(NC(=O)c1cc(NC(=O)c2ccccc2)n(-c2ccccc2)n1)C1CCCCC1 (stereo not shown) please. 7.10

Report pIC50 for "Cc1ccccc1[C@H](CC(=O)O)NC(=O)c1cc(N(CC2CC2)CC2CC2)n(-c2ccccc2)n1" please. 6.28

Report pIC50 for "CN(C(=O)c1ccccc1)c1cc(C(=O)N[C@@H](CC(=O)O)c2ccc(Cl)cc2Cl)nn1-c1ccccc1" please. 7.19

Report pIC50 for N#Cc1ccc(C(CC(=O)O)NC(=O)c2cc3[nH]c4ccccc4n3n2)cc1 (stereo not shown) please. 5.62

Report pIC50 for "Cc1ccccc1[C@H](CC(=O)O)NC(=O)c1cc(N(C)C(=O)C(C)(C)C)n(-c2ccccc2)n1" please. 7.76

* * *

- target: Recombinant human cathepsin A (Homo sapiens)
- Construct: Recombinant human cathepsin A (residues 29-480, with a C-terminal 10-His tag); 10-His (C)
- Sequence (P10619 29-326 limits assumed): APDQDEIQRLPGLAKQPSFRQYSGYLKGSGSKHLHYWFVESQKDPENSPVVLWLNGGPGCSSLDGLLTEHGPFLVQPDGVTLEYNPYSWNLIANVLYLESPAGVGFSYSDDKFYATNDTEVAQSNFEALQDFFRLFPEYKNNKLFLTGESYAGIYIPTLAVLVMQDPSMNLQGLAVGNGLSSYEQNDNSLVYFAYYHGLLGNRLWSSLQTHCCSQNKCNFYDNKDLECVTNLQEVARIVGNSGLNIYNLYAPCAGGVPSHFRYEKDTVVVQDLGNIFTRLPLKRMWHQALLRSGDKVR
- Sequence (P10619 327-480 limits assumed): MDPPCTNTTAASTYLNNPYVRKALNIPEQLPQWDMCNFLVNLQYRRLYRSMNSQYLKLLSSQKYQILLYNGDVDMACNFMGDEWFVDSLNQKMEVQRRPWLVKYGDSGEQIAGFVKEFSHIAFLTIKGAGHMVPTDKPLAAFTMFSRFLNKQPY
- testName: Cathepsin A inhibitory activity
- conditionLabel: activated recombinant human cathepsin A 833 ng/ml, Bodipy FL-labeled bradykinin 2 μM, pH 5.5, 15 min room temperature
measure: IC50
Your reply should be a number followed by the unit it is expressed in.

Take a look at these entries with their results.
compound: Cc1ccccc1[C@H](CC(=O)O)NC(=O)c1cc(NCC2CC2)n(-c2ccccc2)n1 [Example 50]
IC50: 0.049 µM
//
compound: Cc1ccccc1[C@H](CC(=O)O)NC(=O)c1cc(N(C)C(=O)c2ccccc2)n(-c2ccccc2)n1 [Example 63]
IC50: 0.0572 µM
//
compound: CN(C(=O)c1ccccc1)c1cc(C(=O)N[C@@H](CC(=O)O)c2cccc(Cl)c2)nn1-c1ccccc1 [Example 71]
IC50: 0.0567 µM

Record lookup: for Recombinant human cathepsin A (Homo sapiens), what IC50 belongs to CCNc1cc(C(=O)N[C@@H](CC(=O)O)c2ccccc2C)nn1-c1ccccc1 [Example 85] ? 0.0802 µM
